Test system: CCD-19Lu cell line
PROCEDURE_TEXT: MTT assay, normal lung CCD-19Lu cells
Format: cell-based
TEST_PARAMETERS: CCD 19Lu, normal human lung cells, 24 h, read-out: IC50 against CCD-19Lu
Assignment: determine reported pIC50 for the given compounds.
Give bare numbers, as −log10 of the molar value.

- COMPOUND_SMILES: "COc1ccc(-c2nc3ccc(-c4nnc(SCC(=O)c5ccccc5)o4)cc3[nH]2)cc1"
  pIC50: 4.02

Okay, here is my list. What is pIC50 for each of these?
1. O=C(CSc1nnc(-c2ccc3nc(-c4ccc(O)cc4)[nH]c3c2)o1)c1ccc(O)c(O)c1
2. COc1ccc(-c2nc3ccc(-c4nnc(SCC(=O)c5ccc(Br)cc5)o4)cc3[nH]2)cc1
3. O=C(CSc1nnc(-c2ccc3nc(-c4ccc(O)cc4)[nH]c3c2)o1)c1ccccc1
4. O=C(CSc1nnc(-c2ccc3nc(-c4ccc(O)cc4)[nH]c3c2)o1)c1ccc(Cl)cc1Cl
5. O=C(CSc1nnc(-c2ccc3nc(-c4ccc(O)cc4)[nH]c3c2)o1)c1ccc(F)cc1
6. N#Cc1ccc(C(=O)CSc2nnc(-c3ccc4nc(-c5ccc(O)cc5)[nH]c4c3)o2)cc1
7. O=C(CSc1nnc(-c2ccc3nc(-c4ccc(O)cc4)[nH]c3c2)o1)c1ccc(Cl)cc1

4.86
4.43
4.34
4.52
5.28
4.16
4.79
